For each of the compounds below, state its IC50 at 72 h.
# assay_notes: MTT cytotoxicity assay
# assay_setup: human, MCF-7 breast adenocarcinoma cells (ATCC HTB-22)
Numbers only, in µg/mL.

Please go through the list and note IC50 at 72 h for each compound.
1. C#CCOC(=O)C1(C)CCCC2(C)C1CCC13C=C(C(C)C)C(CC12)C1=C3C(=O)C=CC1=O (stereo not shown) [Compound 48]
2. Cc1[nH]c2c3c(c(O)cc2c1CO)[C@H]1C[C@@H]2[C@@]4(C)CCC[C@@](C)(CO)[C@@H]4CC[C@@]32C=C1C(C)C [Compound 38]
3. C#CCOC(=O)C1(C)CCCC2(C)C1CCC13C=C(C(C)C)C(CC12)c1c(O)cc2c(C(=O)OC)c(C)[nH]c2c13 (stereo not shown) [Compound 45]
4. CC(C)C1=CC23CCC4C(C)(C(=O)O)CCCC4(C)C2CC1c1c(OCCC#N)ccc(OCCC#N)c13 (stereo not shown) [Compound 50]

**Result**
39.2
60.4
30.2
158
